Organism: Rattus norvegicus
Test: Open TG-GATES - Regimen: Single
Type: toxicity, organism-based, Sprague-Dawley
Parameters: regimen Single, gender Male, age 6 weeks
Details: in vivo, po, 0 mg/kg, 6 h, tissue Plasma, route gavage, dose level Control
Reported values of IP for individual entries
Express your answer in mg/dL, writing the number without its unit.

[[record]]
molecule = "CCC1(c2ccccc2)C(=O)NC(=O)NC1=O"
experimental_value = 9.3

[[record]]
molecule = "CC(C)N(CCC(C(N)=O)(c1ccccc1)c1ccccn1)C(C)C (stereo not given) [DISOPYRAMIDE]"
experimental_value = 9.3

[[record]]
molecule = "CC1=C(CC(=O)O)c2cc(F)ccc2/C1=C\\c1ccc([S+](C)[O-])cc1 (stereo not given)"
experimental_value = 9.5


molecule `O=NN(CCCl)C(=O)NC1CCCCC1` , IP observed: 11.2

molecule `CN(C)C(=N)N=C(N)N` , IP observed: 9.9

These entries and their values trace back to ChEMBL document CHEMBL3885861.
